What Cmax was measured for each of the following?
- method summary: Single oral dose human plasma pharmacokinetics of D, DA and DOH after Cogni.Q
- Type: in vivo
- experimental setup: human, plasma, oral, 4 Cogni.Q vegicaps, subject S9 (158 lb); read-out: Cmax
One number for each entry, in nM.

Observe how each entry below is paired with its result.
> print(dat)
                                   molecule  observation.type  recorded.value
1  CC(C)=CC(=O)O[C@H]1Cc2cc3ccc(=O)oc3cc2OC1(C)C              Cmax             2.4
2  C/C=C(/C)C(=O)O[C@H]1Cc2cc3ccc(=O)oc3cc2OC1(C)C [DA, decursinol angelate]              Cmax            13.6

# context switch: different molecule, same Cmax
Determine from records and report Cmax for CC1(C)Oc2cc3oc(=O)ccc3cc2C[C@@H]1O
2110
